biological target: human soluble guanylate cyclase alpha 1 and beta 1 subunits (sGC) (Homo sapiens, UniProt Q02108+Q02153); assay: sGC cellular activator assay (cGMP, HTRF); conditions: CHO cells stably expressing human sGC alpha 1/beta 1, preincubated with 40 microM ODQ; cGMP readout; assay run with and without 50% human serum, Table 2 does not say which
Sequence (Q02108 whole entry): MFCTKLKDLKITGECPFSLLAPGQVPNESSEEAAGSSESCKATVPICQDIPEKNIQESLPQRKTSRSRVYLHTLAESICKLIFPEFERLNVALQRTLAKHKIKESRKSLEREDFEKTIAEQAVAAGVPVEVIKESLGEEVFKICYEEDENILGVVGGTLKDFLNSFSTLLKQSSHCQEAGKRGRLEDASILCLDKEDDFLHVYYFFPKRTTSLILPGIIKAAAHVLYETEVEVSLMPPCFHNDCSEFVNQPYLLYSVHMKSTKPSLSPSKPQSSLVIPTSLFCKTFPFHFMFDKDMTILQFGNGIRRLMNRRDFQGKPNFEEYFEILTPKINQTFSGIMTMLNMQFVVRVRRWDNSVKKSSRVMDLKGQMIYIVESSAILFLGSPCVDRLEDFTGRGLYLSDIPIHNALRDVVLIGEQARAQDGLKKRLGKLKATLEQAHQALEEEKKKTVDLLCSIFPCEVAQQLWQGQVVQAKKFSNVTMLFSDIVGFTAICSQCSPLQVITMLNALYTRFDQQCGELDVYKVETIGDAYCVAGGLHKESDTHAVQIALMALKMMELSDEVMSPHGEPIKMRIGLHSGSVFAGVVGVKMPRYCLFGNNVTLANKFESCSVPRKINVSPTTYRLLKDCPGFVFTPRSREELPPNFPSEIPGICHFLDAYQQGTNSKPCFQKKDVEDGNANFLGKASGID
Sequence (Q02153 whole entry): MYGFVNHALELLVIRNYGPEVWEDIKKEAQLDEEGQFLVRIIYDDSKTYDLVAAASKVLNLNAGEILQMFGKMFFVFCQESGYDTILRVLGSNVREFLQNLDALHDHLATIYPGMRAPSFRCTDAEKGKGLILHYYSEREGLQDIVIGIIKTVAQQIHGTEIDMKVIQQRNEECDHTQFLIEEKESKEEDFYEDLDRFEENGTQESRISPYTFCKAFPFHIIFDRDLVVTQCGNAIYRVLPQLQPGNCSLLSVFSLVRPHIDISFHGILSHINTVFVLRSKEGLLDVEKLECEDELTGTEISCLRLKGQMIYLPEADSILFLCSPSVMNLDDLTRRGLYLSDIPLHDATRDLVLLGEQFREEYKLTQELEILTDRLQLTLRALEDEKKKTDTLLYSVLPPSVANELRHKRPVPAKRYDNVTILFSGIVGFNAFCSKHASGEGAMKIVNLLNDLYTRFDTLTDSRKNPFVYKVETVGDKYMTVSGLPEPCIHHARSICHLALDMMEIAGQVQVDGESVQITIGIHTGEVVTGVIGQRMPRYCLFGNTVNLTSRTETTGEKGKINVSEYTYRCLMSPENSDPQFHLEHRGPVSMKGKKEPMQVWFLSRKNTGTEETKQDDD
assay_endpoint: pEC50
One number for each entry, as −log10 of the molar value.

molecule	pEC50
COc1c(C(=O)O)cnn1-c1cccc(-c2cccc(C)c2OCc2ccc3c(c2)CN(C2COC2)C3)n1	7.66
COCC(C)N1CCc2cc(COc3c(C)cccc3-c3cccc(-n4ncc(C(=O)O)c4OC)n3)ccc2C1 (stereo not shown)	7.28
COc1c(C(=O)O)cnn1-c1cccc(-c2cccc(C)c2OCc2ccc3c(c2C)CCN([C@H]2CCCOC2)C3)n1	7.77

Query molecule follows.
get_value(item= `CCOc1c(C(=O)O)cnn1-c1cccc(-c2cccc(C)c2OCc2ccc3c(c2C)CCN(C[C@@H]2CCOC2)C3)n1` , readout=pEC50) returns 7.92

----------
experiment: Assessment of solubility (McIlvaine buffers, 24 h shake, UPLC-UV); assay type: physicochemical; settings: pH 2.2, aqueous buffer, kinetic from dmso stock
assay_endpoint: solubility at 24 h
Write the numeric value and follow it with the unit.

molecule	solubility at 24 h
CCOc1c(C(=O)O)cnn1-c1cccc(-c2cccc(C)c2OCc2ccc3c(c2)CCCN(C2CCCOC2)C3)n1 (stereo not shown) [Compound 245]	100 µg/mL

# per-item lookup of solubility at 24 h; items listed below
1. COc1c(C(=O)O)cnn1-c1cccc(-c2cccc(C)c2OCc2ccc3c(c2)CN(CC2COCCO2)C3)n1 (stereo not shown) [Compound 247]
2. Cc1cccc(-c2cccc(-n3ncc(C(=O)O)c3OC(C)C)n2)c1OCc1ccc2c(c1)CCN(CC1CC(F)(F)C1)C2 [Compound 4]
3. COc1c(C(=O)O)cnn1-c1cccc(-c2cccc(C)c2OCc2ccc3c(c2)CCN(CC(C)(C)O)C3)n1 [Compound 33]

### Response
["90 µg/mL", "100 µg/mL", "93 µg/mL"]

----------
What solubility at 24 h was measured for each of the following?
experiment: Assessment of solubility (McIlvaine buffers, 24 h shake, UPLC-UV); format: physicochemical; conditions: pH 4.5, aqueous buffer, kinetic from dmso stock
Give bare numbers, in µg/mL.

molecule	solubility at 24 h, µg/mL
CCOc1c(C(=O)O)cnn1-c1cccc(-c2cccc(C)c2OCc2ccc3c(c2C)CCN(CC2(F)COC2)C3)n1	47
COc1c(C(=O)O)cnn1-c1cccc(-c2cccc(C)c2OCc2ccc3c(c2C)CCN(C[C@@H]2COCCO2)C3)n1	110
CCOc1c(C(=O)O)cnn1-c1cccc(-c2cccc(C)c2OCc2ccc3c(c2C)CCN(C[C@H]2CCCO2)CC3)n1	73
CCOc1c(C(=O)O)cnn1-c1cccc(-c2cccc(Cl)c2OCc2ccc3c(c2)CCN(C2CCC(F)(F)CC2)C3)n1	47
CC[C@H](C)Oc1c(C(=O)O)cnn1-c1cccc(-c2cccc(C)c2OCc2ccc3c(c2C)CCN(C2CCOC2)C3)n1 (stereo partly shown)	98

# per-item lookup of solubility at 24 h; items listed below
1. CCOc1c(C(=O)O)cnn1-c1cccc(-c2cccc(C)c2OCc2ccc3c(c2)CCN(C2CCOC(CC)C2)C3)n1 (stereo not shown)
2. CCOc1c(C(=O)O)cnn1-c1cccc(-c2cccc(C)c2OCc2cc(C)c3c(c2)CCN(C2CCOC2)C3)n1 (stereo not shown)

### Response
1. 87
2. 81

----------
assay: Assessment of solubility (McIlvaine buffers, 24 h shake, UPLC-UV); assay type: physicochemical; conditions: pH 2.2, aqueous buffer, kinetic from dmso stock
What solubility at 24 h was measured for each of the following?
Write the numeric value and follow it with the unit.

# per-item lookup of solubility at 24 h; items listed below
1. CCOc1c(C(=O)O)cnn1-c1cccc(-c2cccc(C)c2OCc2ccc3c(c2OC)CCN(C2CCOCC2)C3)n1 [Compound 220]
2. CCOc1c(C(=O)O)cnn1-c1cccc(-c2cccc(Cl)c2OCc2ccc3c(c2)CCN(C2COC2)C3)n1 [Compound 51]
3. COc1c(C(=O)O)cnn1-c1cccc(-c2cccc(C(F)(F)F)c2OCc2ccc3c(c2)CCN(C2CCOCC2)C3)n1 [Compound 83]
4. COCC(C)N1CCc2cc(COc3c(C)cccc3-c3cccc(-n4ncc(C(=O)O)c4OC(C)C)n3)ccc2C1 (stereo not drawn) [Compound 38]
5. Cc1cccc(-c2cccc(-n3ncc(C(=O)O)c3OC(C)C)n2)c1OCc1ccc2c(c1)CCN(C1CCOCC1)C2 [Compound 1]

### Response
["100 µg/mL", "110 µg/mL", "110 µg/mL", "110 µg/mL", "95 µg/mL"]

# per-item lookup of solubility at 24 h; items listed below
1. COc1c(C(=O)O)cnn1-c1cccc(-c2cccc(C)c2OCc2ccc3c(c2F)CCN(C2COC2)C3)n1 [Compound 177]
2. CCOc1c(C(=O)O)cnn1-c1cccc(-c2cccc(C)c2OCc2ccc3c(c2C)CCN(C[C@H]2CCCCO2)C3)n1 [Compound 232]
3. COc1c(C(=O)O)cnn1-c1cccc(-c2cccc(C)c2OCc2cc(C)c3c(c2)CCN(CC2(C)COC2)C3)n1 [Compound 239]
4. CCOc1c(C(=O)O)cnn1-c1cccc(-c2cccc(C)c2OCc2ccc3c(c2)CCN(C2COC2)CC3)n1 [Compound 213]

### Response
1. 110 µg/mL
2. 93 µg/mL
3. 91 µg/mL
4. 85 µg/mL

----------
What HLM (% Qh) was measured for each of the following?
assay: human liver microsome (HLM) metabolic stability assay; type: in vitro ADME; settings: human liver microsomes; % hepatic blood flow calculated from t1/2

compound	HLM (% Qh)
COc1c(C(=O)O)cnn1-c1cccc(-c2cccc(C)c2OCc2ccc3c(c2Cl)CCN(CC(C)(C)C)C3)n1	<24 % Qh
CCOc1c(C(=O)O)cnn1-c1cccc(-c2cccc(C)c2OCc2ccc3c(c2C)CCN([C@H]2CCOC2)C3)n1	<24 % Qh
CCOc1c(C(=O)O)cnn1-c1cccc(-c2cccc(C)c2OCc2ccc3c(c2C)CCN(C(C)COC)CC3)n1 (centres unmarked)	<24 % Qh

# per-item lookup of HLM (% Qh); items listed below
1. COCCOc1c(C(=O)O)cnn1-c1cccc(-c2cccc(C)c2OCc2ccc3c(c2C)CCN(C2CCCOC2)C3)n1 (centres unmarked)
2. CCOc1c(C(=O)O)cnn1-c1cccc(-c2cccc(C)c2OCc2ccc3c(c2C)CCN(C[C@H]2CCCO2)CC3)n1
3. Cc1cccc(-c2cccc(-n3ncc(C(=O)O)c3OC(C)C)n2)c1OCc1ccc2c(c1C)CCN(C1CCOCC1)C2

### Response
["<24 % Qh", "26 % Qh", "26 % Qh"]

# per-item lookup of HLM (% Qh); items listed below
1. Cc1cccc(-c2cccc(-n3ncc(C(=O)O)c3OC(C)C)n2)c1OCc1ccc2c(c1)CCN([C@H]1CCOC1)C2
2. CCOc1c(C(=O)O)cnn1-c1cccc(-c2cccc(C)c2OCc2ccc3c(c2)CCN(CC2CC(=O)N(C)C2)C3)n1 (centres unmarked)
3. CCOc1c(C(=O)O)cnn1-c1cccc(-c2cccc(C)c2OCc2ccc3c(c2C)CCN(C[C@H]2COCCO2)CC3)n1
4. COc1c(C(=O)O)cnn1-c1cccc(-c2ccc(C)cc2OCc2ccc3c(c2)CCN(C2CCOCC2)C3)n1
5. Cc1cccc(-c2cccc(-n3ncc(C(=O)O)c3OC(C)C)n2)c1OCc1ccc2c(c1)CCN(C1CCCOC1)C2 (centres unmarked)

### Response
1: <24 % Qh; 2: <24 % Qh; 3: <24 % Qh; 4: 31 % Qh; 5: <24 % Qh

----------
What HLM (% Qh) was measured for each of the following?
test: human liver microsome (HLM) metabolic stability assay; assay type: in vitro ADME; conditions: human liver microsomes; % hepatic blood flow calculated from t1/2

compound	HLM (% Qh)
COc1c(C(=O)O)cnn1-c1cccc(-c2cccc(C)c2OCc2ccc3c(c2)CCN(CC2CC2)C3)n1 [Compound 24]	<24 % Qh
COc1c(C(=O)O)cnn1-c1cccc(-c2cccc(C)c2OCc2ccc3c(c2)CN(CC2CC(F)(F)C2)C3)n1 [Compound 82]	<24 % Qh
CCOc1c(C(=O)O)cnn1-c1cccc(-c2cccc(C)c2OCc2ccc3c(c2C)CCN([C@H]2CCOC2)CC3)n1 [Compound 225]	<24 % Qh

# per-item lookup of HLM (% Qh); items listed below
1. CCOc1c(C(=O)O)cnn1-c1cccc(-c2cccc(C)c2OCc2ccc3c(c2)CCN(C2CCOCC2)C3)n1 [Compound 77]
2. CCOc1c(C(=O)O)cnn1-c1cccc(-c2cccc(C)c2OCc2ccc3c(c2C)CCN(C[C@@H]2CCCO2)CC3)n1 [Compound 235]
3. CCOc1c(C(=O)O)cnn1-c1cccc(-c2cccc(C)c2OCc2ccc3c(c2C)CCN(C[C@@H]2CCOC2)C3)n1 [Compound 189]
4. CCOc1c(C(=O)O)cnn1-c1cccc(-c2cccc(C)c2OCc2ccc3c(c2)CCN(C2CCOC(C)C2)C3)n1 (stereo not shown) [Compound 78]

### Response
1. <24 % Qh
2. 29 % Qh
3. 26 % Qh
4. <24 % Qh
